# Experimental Target: E3 ubiquitin-protein ligase XIAP (Homo sapiens)
# Method Summary: small molecules binding XIAP protein – biophysical, small-molecule microarray, fluorescence 635 nm, primary screen (AID 1181);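 further: score merges 667 nm emission and signal to noise over triplicate slides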
# Stated Conditions: higher = more signal
# Lookup of reported composite z-score keyed by entry
Measured Parameter: composite z-score

{"Compound": "COC(=O)[C@@]1(Cc2ccc(OC)cc2)[C@H]2c3cc(C(=O)N4CCCC4)n(CCCNc4ncc(C(F)(F)F)cc4Cl)c3C[C@H]2CN1C(=O)c1ccccc1", "Quantitative Result": 0.0986}
{"Compound": "CC(C)(C)OC(=O)CC[C@]1(C(=O)NCCN2CCOCC2)COC(c2ccc(OCCCO)cc2)=N1", "Quantitative Result": -0.0118}
{"Compound": "CCCC[C@H]1C[C@@H]1[C@@H]1N(P(=O)(c2ccccc2)c2ccccc2)C[C@@](O)(c2ccccc2)CC12CC2", "Quantitative Result": 0.0447}
{"Compound": "COc1ccccc1CN1C(=O)c2ccccc2[C@@H](C(=O)NCc2ccccc2)[C@@H]1c1ccc(CO)cc1", "Quantitative Result": -0.193}
{"Compound": "CCCCN1CC=CC23O[C@@H]4/C=C\\CCCOC(=O)C4[C@H]2C(=O)N(CCCCCO)[C@@H]3C1=O (stereo partly drawn)", "Quantitative Result": 0.161}
{"Compound": "COCCCNC(=O)[C@@]1(Sc2ccc(C)cc2)CC(=O)N(Cc2ccccc2Cl)[C@@H]1c1ccc(CO)cc1", "Quantitative Result": 0.145}
{"Compound": "COc1ccc([C@H]2C[C@H]3C(I)=C[C@@H]2C(=O)[C@]32CO2)cc1", "Quantitative Result": 0.288}
{"Compound": "COC(=O)[C@@]1(Cc2ccc(OC)cc2)[C@H]2c3cc(C(=O)N4CCCC4)n(CCSCCO)c3C[C@H]2CN1C(=O)c1ccccc1", "Quantitative Result": 0.187}
